A short record of pIC50 observed with Serine/threonine-protein kinase SIK3 (Homo sapiens, UniProt Q9Y2K2) follows.
Sequence (Q9Y2K2 whole entry): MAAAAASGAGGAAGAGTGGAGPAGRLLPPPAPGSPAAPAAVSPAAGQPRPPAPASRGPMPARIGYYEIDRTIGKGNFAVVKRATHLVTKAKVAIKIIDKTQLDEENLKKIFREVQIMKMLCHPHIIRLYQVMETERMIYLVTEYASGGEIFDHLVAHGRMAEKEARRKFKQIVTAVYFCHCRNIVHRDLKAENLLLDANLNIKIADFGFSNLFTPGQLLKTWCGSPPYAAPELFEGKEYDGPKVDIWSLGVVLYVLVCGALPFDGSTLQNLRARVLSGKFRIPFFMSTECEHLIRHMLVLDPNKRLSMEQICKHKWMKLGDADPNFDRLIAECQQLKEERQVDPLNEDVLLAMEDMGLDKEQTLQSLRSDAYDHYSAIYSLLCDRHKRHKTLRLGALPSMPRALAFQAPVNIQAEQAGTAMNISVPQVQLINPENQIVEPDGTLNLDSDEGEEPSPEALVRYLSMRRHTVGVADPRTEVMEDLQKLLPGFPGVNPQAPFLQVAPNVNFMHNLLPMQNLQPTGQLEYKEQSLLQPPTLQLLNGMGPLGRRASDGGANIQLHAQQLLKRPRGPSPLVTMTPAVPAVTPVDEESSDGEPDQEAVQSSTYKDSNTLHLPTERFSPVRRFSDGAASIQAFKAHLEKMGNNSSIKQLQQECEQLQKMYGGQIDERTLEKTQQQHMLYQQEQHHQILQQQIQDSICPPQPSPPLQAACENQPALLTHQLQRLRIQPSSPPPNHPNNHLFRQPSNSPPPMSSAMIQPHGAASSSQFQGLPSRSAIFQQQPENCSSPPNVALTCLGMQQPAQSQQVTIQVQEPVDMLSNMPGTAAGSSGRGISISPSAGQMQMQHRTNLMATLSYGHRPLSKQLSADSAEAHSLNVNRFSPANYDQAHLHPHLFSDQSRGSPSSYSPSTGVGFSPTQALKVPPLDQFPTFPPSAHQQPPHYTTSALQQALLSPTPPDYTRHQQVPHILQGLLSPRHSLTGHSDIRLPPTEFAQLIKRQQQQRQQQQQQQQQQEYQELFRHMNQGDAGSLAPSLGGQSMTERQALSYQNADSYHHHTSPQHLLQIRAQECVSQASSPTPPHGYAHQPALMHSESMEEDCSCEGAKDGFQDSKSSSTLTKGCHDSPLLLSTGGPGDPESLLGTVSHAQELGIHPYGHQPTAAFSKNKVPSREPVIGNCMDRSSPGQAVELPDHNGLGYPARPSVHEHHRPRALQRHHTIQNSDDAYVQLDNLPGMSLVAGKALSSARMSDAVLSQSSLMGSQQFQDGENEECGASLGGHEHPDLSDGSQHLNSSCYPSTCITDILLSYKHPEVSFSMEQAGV
Give bare numbers, as −log10 of the molar value.

CN1C(=O)[C@@H](N2CCc3cn(CC4CCS(=O)(=O)CC4)nc3C2=O)COc2ccccc21 [TP-030n] = 6.00

Pending compound:
[ask] If you can, please state the reported pIC50 value of CN1C(=O)[C@@H](N2CCc3cn(Cc4ccccc4)nc3C2=O)COc2ccccc21 [TP-030-1] .
[reply] 6.00

----------
Target: Interferon-induced, double-stranded RNA-activated protein kinase (Homo sapiens)
Sequence (P19525 whole entry): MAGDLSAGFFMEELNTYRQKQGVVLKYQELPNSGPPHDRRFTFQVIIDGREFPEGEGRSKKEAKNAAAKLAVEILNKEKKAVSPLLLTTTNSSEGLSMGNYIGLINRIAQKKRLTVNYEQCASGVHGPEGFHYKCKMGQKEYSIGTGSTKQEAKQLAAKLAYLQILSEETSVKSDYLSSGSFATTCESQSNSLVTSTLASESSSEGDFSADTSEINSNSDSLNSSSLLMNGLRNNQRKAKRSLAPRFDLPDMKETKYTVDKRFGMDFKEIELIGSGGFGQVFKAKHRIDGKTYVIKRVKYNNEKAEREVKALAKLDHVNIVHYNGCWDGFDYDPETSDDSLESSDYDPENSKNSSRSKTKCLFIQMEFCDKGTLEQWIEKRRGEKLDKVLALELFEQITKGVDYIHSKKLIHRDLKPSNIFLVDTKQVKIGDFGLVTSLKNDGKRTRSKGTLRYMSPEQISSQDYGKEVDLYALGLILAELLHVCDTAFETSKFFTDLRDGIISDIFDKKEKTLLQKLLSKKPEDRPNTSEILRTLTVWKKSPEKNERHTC
Assay: PKR(EIK2LGY1) Takeda global kinase panel
MEASUREMENT TYPE: IC50 (nM)
Answers are plain numbers, in nM.

CN1C(=O)[C@@H](N2CCc3cn(Cc4ccccc4)nc3C2=O)COc2ccccc21 [TP-030-1] = 1000

Here's the next entry for you.
[ask] So what does the record say about IC50 for CN1C(=O)[C@@H](N2CCc3cn(CC4CCS(=O)(=O)CC4)nc3C2=O)COc2ccccc21 [TP-030n] ?
[reply] 1000
